# System under test: T1, human cathepsin F (human, UniProt Q9UBX1 271-484)
# T1 construct: source: bought: Enzo Life Sciences
# T1 sequence (looked up): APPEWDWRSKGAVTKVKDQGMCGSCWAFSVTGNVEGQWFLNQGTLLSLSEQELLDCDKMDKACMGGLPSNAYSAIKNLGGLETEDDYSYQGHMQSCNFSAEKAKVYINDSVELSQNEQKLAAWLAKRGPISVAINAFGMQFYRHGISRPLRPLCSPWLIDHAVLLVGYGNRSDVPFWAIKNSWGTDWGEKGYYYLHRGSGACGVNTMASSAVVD
# Test method notes: enzyme inhibition kinetics (fluorogenic peptide substrate activity assay); inhibitor preincubated with protease 15 min, 37 °C; IC50 from residual velocities, Ki by the Cheng-Prusoff equation; 50 mM sodium acetate pH 5.5, 0.1% polyethylene glycol 1500, 2.5 mM dithiothreitol (cathepsins L, K, V, B, F, C and papain; 50 mM NaCl for cathepsin C)
# Applied conditions: both partners purified
Readout type: Ki (nM)
Report the figure in nM without appending any unit label.

Would you mind telling me what Ki value was observed for IrThy-Nd, recombinant N-terminal Tg1 domain of IrThy (domain or fragment) SNAASVPTRVANHGASRPLSDCEQRKQREERNTGPLAIHIECNPDGSYKPMQCFGNPDQPRRMCACYDQEYDQIKAPSRQLKSCK ?
207
